# test-system: UniProtKB P51531
property: pIC50
Numbers only, as −log10 of the molar value.

Example cases with answers are listed next.
>>> df
                                  structure       test_system  meas_value
0  C[C@@H]1CCN1c1cnc2c(c1)OCCN2c1ccc2cnc(CNC(=O)c3cc(C(F)F)c4c(c3)S(=O)(=O)[C@@H](F)COC4)cc2n1  UniProtKB P51531        8.25
1  COc1nc([C@](C)(F)C(F)F)ccc1-c1ccc2cnc(CNC(=O)c3ccc4c(c3)S(=O)(=O)[C@@H](F)CCOC4)cc2n1  UniProtKB P51531        8.70
2  O=C(NCc1cc2nc(-c3cccc(OC(F)F)n3)ccc2cn1)c1cc(Cl)c2c(c1)S(=O)(=O)[C@@H](F)CCO2  UniProtKB P51531        8.15
3  COc1nc([C@@H](C)C(F)F)ccc1-c1ccc2cnc(CNC(=O)c3cc(F)c4c(c3)S(=O)(=O)[C@@H](F)CCO4)cc2n1  UniProtKB P51531        7.62

Consider the following items and state reported pIC50 for each.
1. COc1nc([C@@](C)(F)C(F)F)ccc1-c1ccc2cnc(CNC(=O)c3cc(F)c4c(c3)S(=O)(=O)[C@@H](F)COC4)cc2n1
2. O=C(NCc1cc2nc(-c3cccc(OC(F)(F)F)n3)ccc2cn1)c1cc(F)c2c(c1)S(=O)(=O)[C@@H](F)COC2

## Output
1. 8.10
2. 7.98

====

# test-system: BRM (Homo sapiens)
property: IC50 (nM)
Answers are plain numbers, in nM.

Example cases with answers are listed next.
compound	meas-value
CO[C@H]1C[C@H]1c1cnc2c(c1)OCCN2c1ccc2cnc(CNC(=O)c3cc(F)c4c(c3)S(=O)(=O)[C@@H](F)CCO4)cc2n1 [Compound 45]	2.1
CO[C@@H]1C[C@H]1N(C)c1cccc(-c2ccc3cnc(CNC(=O)c4cc(F)c5c(c4)S(=O)(=O)[C@@H](F)COC5)cc3n2)n1 [Compound 215]	6.5
[2H]C1([2H])Oc2c(F)cc(C(=O)NCc3cc4nc(-c5ccc(OC(F)F)c(C6CC6)n5)ccc4cn3)cc2S(=O)(=O)[C@@]([2H])(F)C1([2H])[2H] [Compound 186]	5.7

Consider the following items and state reported IC50 for each.
1. C[C@@H]1CCN1c1cnc2c(c1)OCCN2c1ccc2cnc(CNC(=O)c3cc(Br)c4c(c3)S(=O)(=O)[C@@H](F)CCO4)cc2n1 [Compound 299]
2. C[C@@H]1CCN1c1cnc2c(c1)OCCN2c1ccc2cnc(CNC(=O)c3cc(F)c4c(c3)S(=O)(=O)[C@@H](F)CCO4)cc2n1 [Compound 47]
3. COc1nc(-c2ccc3cnc(CNC(=O)c4cc(F)c5c(c4)S(=O)(=O)[C@@H](F)CCO5)cc3n2)ccc1[C@H](F)CF [Compound 227]

## Output
1. 9.9
2. 2.3
3. 7.1

====

# test-system: BRM (Homo sapiens, UniProt P51531)
# Construct: made in house; host or cells: High Five insect cells
# Sequence (P51531 whole entry): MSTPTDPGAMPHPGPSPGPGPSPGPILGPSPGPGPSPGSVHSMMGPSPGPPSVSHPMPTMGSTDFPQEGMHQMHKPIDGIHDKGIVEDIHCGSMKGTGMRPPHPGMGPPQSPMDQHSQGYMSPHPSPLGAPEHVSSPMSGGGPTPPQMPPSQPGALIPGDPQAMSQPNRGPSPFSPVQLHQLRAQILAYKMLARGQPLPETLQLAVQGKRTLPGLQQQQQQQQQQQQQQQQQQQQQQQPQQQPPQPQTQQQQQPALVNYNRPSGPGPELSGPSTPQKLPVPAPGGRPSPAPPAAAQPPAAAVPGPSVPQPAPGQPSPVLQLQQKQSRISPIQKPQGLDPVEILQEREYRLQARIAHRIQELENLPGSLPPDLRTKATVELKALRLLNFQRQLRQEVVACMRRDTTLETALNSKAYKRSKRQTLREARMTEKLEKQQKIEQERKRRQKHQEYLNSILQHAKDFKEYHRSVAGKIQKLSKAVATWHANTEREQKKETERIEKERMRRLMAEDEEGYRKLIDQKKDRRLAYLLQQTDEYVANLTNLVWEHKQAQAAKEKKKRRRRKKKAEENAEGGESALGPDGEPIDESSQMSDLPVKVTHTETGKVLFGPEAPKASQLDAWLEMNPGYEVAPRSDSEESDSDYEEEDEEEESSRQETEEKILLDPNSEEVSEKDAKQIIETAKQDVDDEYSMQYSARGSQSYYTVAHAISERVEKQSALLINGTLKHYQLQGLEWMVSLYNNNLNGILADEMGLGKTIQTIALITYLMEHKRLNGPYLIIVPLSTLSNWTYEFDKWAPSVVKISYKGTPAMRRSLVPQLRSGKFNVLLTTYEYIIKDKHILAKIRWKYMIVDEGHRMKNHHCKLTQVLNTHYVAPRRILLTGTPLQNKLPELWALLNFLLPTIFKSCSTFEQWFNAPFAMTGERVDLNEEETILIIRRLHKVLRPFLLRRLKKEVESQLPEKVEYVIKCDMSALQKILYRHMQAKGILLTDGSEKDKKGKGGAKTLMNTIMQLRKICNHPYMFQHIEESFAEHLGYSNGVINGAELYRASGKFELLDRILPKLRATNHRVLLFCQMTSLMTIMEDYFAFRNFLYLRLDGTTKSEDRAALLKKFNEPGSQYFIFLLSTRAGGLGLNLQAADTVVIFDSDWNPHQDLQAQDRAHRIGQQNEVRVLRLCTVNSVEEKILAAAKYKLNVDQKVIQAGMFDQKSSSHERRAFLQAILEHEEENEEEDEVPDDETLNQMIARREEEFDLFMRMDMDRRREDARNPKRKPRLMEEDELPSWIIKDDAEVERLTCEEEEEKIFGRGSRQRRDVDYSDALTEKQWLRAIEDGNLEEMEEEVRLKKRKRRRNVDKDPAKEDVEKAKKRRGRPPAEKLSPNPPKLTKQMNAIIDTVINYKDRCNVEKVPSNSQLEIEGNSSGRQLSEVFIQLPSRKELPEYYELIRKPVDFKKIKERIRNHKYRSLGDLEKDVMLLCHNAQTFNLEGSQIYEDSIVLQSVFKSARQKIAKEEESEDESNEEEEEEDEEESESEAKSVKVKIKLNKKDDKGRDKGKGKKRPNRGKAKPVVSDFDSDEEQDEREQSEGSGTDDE
# assay-explanation: ATPase catalytic activity assay (ADP-Glo), BRM
# Type: biochemical
# reported-conditions: ATPase assay, selectivity BRG1/BRM, Table 10
property: Ratio (BRG1 IC50 (μM) divided by BRM IC50 (μM))

Example cases with answers are listed next.
                                  structure  meas_value
0  O=C(NCc1cc2nc(-c3cccc(OC(F)F)n3)ccc2cn1)c1ccc2c(c1)S(=O)(=O)[C@@H](F)CCOC2       13.35
1  COCCN(C)c1cnc2c(c1)CCCN2c1ccc2cnc(CNC(=O)c3cc(F)c4c(c3)S(=O)(=O)[C@@H](F)CCO4)cc2n1       13.78
2  Cc1ccc(-c2ccc3cnc(CNC(=O)c4cc(F)c5c(c4)S(=O)(=O)[C@@H](F)CCO5)cc3n2)c(OC(F)F)n1       24.03
3  [2H]C1([2H])Oc2c(F)cc(C(=O)NCc3cc4nc(N5CCOc6cc(C7CC7)cnc65)ccc4cn3)cc2S(=O)(=O)[C@]([2H])(F)C1([2H])[2H]       15.80
4  O=C(NCc1cc2nc(N3CCOc4ccc(N5CC(F)C5)nc43)ccc2cn1)c1cc(F)c2c(c1)S(=O)(=O)[C@@H](F)COC2       23.13

Now turn to the next molecule.
## Input What Ratio (BRG1 IC50 (μM) divided by BRM IC50 (μM)) appears in the records for this molecule with BRM (Homo sapiens, UniProt P51531)? COc1nc([C@H](C)F)ccc1-c1ccc2cnc(CNC(=O)c3cc(Cl)c4c(c3)S(=O)(=O)[C@@H](F)COC4)cc2n1
## Output 28.19
